pIC50: −log10 of the molar value.
Reported pIC50 on HPK1 (Homo sapiens (Human)) for assorted compounds, compiled from publications.

Reported HPK1 (Homo sapiens (Human)) pIC50 for item COc1cc2c(cc1Nc1ncc(C(N)=O)c(Nc3cccc4c3CCN(C(C)=O)C4)n1)CN(C)CC2 was 9.32

Reported HPK1 (Homo sapiens (Human)) pIC50 for item Cc1cc(-c2cnc(N)c(OC3CCc4cnccc43)n2)cc2c1CCN(C)C2 (stereo not shown) was 7.21

Reported HPK1 (Homo sapiens (Human)) pIC50 for item O=C1NCc2c(-c3cnc4cnccn34)ccc(Nc3ccc(N4CCC[C@H](O)CC4)cn3)c21 was > 7.00

Reported HPK1 (Homo sapiens (Human)) pIC50 for item Cc1[nH]c2ncccc2c1-c1ccc(Nc2ccc(N3CCN(C)CC3)cn2)c2c1CNC2=O was 6.00 to 7.00

Reported HPK1 (Homo sapiens (Human)) pIC50 for item Cc1ccncc1-c1cc2c(cn1)NC(=O)/C2=C(\Nc1cnn(C)c1)C(C)C was 7.00 to 7.30

Reported HPK1 (Homo sapiens (Human)) pIC50 for item Cc1cccc(F)c1-n1nc2c(-c3ccc4c(c3F)CN(C)CC4)n[nH]c2cc1=O was 6.30 to 7.30

Reported HPK1 (Homo sapiens (Human)) pIC50 for item O=C(c1ccc(-c2cc(Nc3ccc(N4CCC(O)CC4)cn3)c3c(=O)[nH]ccc3n2)c(F)c1)N1CCCC1CO (stereo not shown) was 6.00 to 7.00

Reported HPK1 (Homo sapiens (Human)) pIC50 for item C/C(Nc1ccc(N2CCOCC2)cc1)=C1/C(=O)Nc2cnc(-c3cnccc3C)cc21 was > 7.30

Reported HPK1 (Homo sapiens (Human)) pIC50 for item COc1cccc(F)c1-c1nc2c(-c3ccc4c(c3)OCC3CN(C)CCN43)n[nH]c2cc1C#N (stereo not shown) was 7.00 to 8.00

Reported HPK1 (Homo sapiens (Human)) pIC50 for item O=c1[nH]ncn1-c1cccc(-c2cnc3[nH]cc(C4CC4)c3c2Cl)c1 was 7.74

Reported HPK1 (Homo sapiens (Human)) pIC50 for item Cc1cccc(F)c1-n1nc2c(-c3ccc(N4CCS(=O)(=O)CC4)nc3)n[nH]c2cc1=O was 6.30 to 7.30

Reported HPK1 (Homo sapiens (Human)) pIC50 for item CN1CCN(c2ccc(Nc3cnc(-c4c[nH]c5nc(C(F)(F)F)ccc45)c4c3C(=O)NC4)nc2)CC1 was < 6.00

Reported HPK1 (Homo sapiens (Human)) pIC50 for item Cn1ncc2c(N3C[C@H](N)C4(CC4)C3)c(NC(=O)c3ccc(=O)n(-c4c(F)cccc4F)n3)ccc21 was > 7.00

Reported HPK1 (Homo sapiens (Human)) pIC50 for item O=C1NCc2c(-c3cncn3-c3ccccc3)ccc(Nc3ccc(N4CCNCC4)cn3)c21 was > 6.00

Reported HPK1 (Homo sapiens (Human)) pIC50 for item C/C(Nc1cc(C)n(CC(C)(C)O)n1)=C1/C(=O)Nc2cnc(-c3c(C)cccc3F)cc21 was > 7.30

Reported HPK1 (Homo sapiens (Human)) pIC50 for item COc1cc2c(cc1Nc1ncc(C(N)=O)c(Nc3ccccc3Br)n1)CN(S(C)(=O)=O)CC2 was 7.36
